- System: MOLT-4 leukemia
- assay_explanation: NCI tumour cell line growth inhibition, 48 h; in the data active means GI50 below about 0.43 µM; inactive means the rest
Outcome codes: class 1 for active, class 0 for inactive

structure_smiles	class_assignment
CNc1ncc2cc(Oc3ccc(F)cc3F)c(=O)n(C)c2n1	class 0
COc1ccc2c(c1OC)C(=O)O[C@@H]2[C@H]1c2c(c(Br)c3c(c2OC)OCO3)CCN1C	class 0
c1ccc(/C(=N\Nc2ccc3ccccc3n2)c2ccccn2)cc1	class 1
COc1ccc2c(c1)C=C1CSCC3=Cc4cc(OC)ccc4OC13O2	class 0
Cc1ccccc1NC(=O)c1cc2ccccc2cc1O	class 0
CNC(=O)c1cncc(/C=C/c2c(Cl)cccc2Cl)c1	class 0
Oc1ccc(O)c2c1C1(Cl)C(Cl)=C(Cl)C2(Cl)C1(Cl)Cl	class 0
CC(=O)n1c(-c2ccc(Cl)c(Cl)c2)cn(-c2ccc(Cl)cc2)c1=O	class 0
O=c1[nH]nc(-c2ccccc2)c2c(-c3ccccc3)onc12	class 0
O=C1COCCN1c1ccc(NCc2cn(C(=O)c3ccc(Cl)cc3)c3ccccc23)cc1	class 0
